Source: patent US10051861B2

# method notes: logP by HPLC on reversed-phase columns (C 18), EEC Directive 79/831 Annex V.A8
# Assay type: physicochemical
# conditions used: pH 2.7, logP(HCOOH)
measurement name: chromatographic logP
Give only the figure.

Challenge: Indicate its recorded chromatographic logP; the compound in question is Cc1cc(C)c(SCC(F)(F)F)cc1N=C1NCCO1
Response given: 1.36

---

# System: cattle ticks (Boophilus microplus)
# method notes: Boophilus microplus injection test (BOOPMI Inj)
# Format: in vivo
# conditions used: Rhipicephalus microplus, 168 h; application rate 20 μg/animal, injection, after 7 days; read-out: efficacy (laying of fertile eggs)
measurement name: pest or weed control at 0.02 mg (%)
Write the number in % without appending the unit.

Challenge: // output pest or weed control at 0.02 mg; input Cc1cc(F)c(/N=C(/c2ccc(Cl)cc2)N(C)C)cc1SCC(F)(F)F ; system cattle ticks (Boophilus microplus)
Response given: 100

Challenge: Look up and report pest or weed control at 0.02 mg, with cattle ticks (Boophilus microplus) as system, for N/C(=N/c1cc([S@+]([O-])CC(F)(F)F)c(Cl)cc1Cl)C(F)(F)F
Response given: 100

Challenge: Give pest or weed control at 0.02 mg; test system cattle ticks (Boophilus microplus); compound CN/C(=N\c1cc([S+]([O-])CC(F)(F)F)c(Cl)cc1Cl)c1ccc(Cl)nc1 (centres unmarked)
Response given: 80

Challenge: Provide measured pest or weed control at 0.02 mg on cattle ticks (Boophilus microplus) for Cc1cc(F)c(/N=C(\N)C2(C#N)CC2)cc1SCC(F)(F)F please.
Response given: 100

Challenge: Report pest or weed control at 0.02 mg from cattle ticks (Boophilus microplus) testing of CN/C(=N\c1cc(SCC(F)(F)F)c(C)cc1F)c1cccc(Cl)c1
Response given: 100
